# Tested on: LXRa homodimer (NR concentration 270 nM)
# protocol-summary: PBM binding z-score (relative to random genomic background probes); higher = stronger binding; sequences stand for … in GC…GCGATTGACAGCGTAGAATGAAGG
Listed sequences paired with reported PBM binding z-score
Just the number, please.

>  <record-sequence>
AGAACGAGGGCACGCTGAGCTGATAGCAGAGTAG

>  <measurement-target>
LXRa homodimer (NR concentration 270 nM)

>  <PBM binding z-score>
-0.751

$$$$
>  <record-sequence>
ATCGCTAGGTAAAAGTTCAGTGAATCCCGAGGAT

>  <measurement-target>
LXRa homodimer (NR concentration 270 nM)

>  <PBM binding z-score>
0.677

$$$$

Please examine the following record next.
Problem: Assign PBM binding z-score to the following record: `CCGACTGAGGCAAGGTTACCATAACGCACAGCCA`
Result: -0.295

* * *

# Test system: RARg homodimer (NR concentration 270 nM)
# protocol-summary: PBM binding z-score (relative to random genomic background probes); higher = stronger binding; sequences stand for … in GC…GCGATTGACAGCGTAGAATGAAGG
quantity-name: PBM binding z-score

Problem: Give me measured PBM binding z-score, please, for this sequence: `CCTACTGGGCCACGACAGGTCATTGATTCAGTGA`
Result: 1.52

Problem: Fill in reported PBM binding z-score for this entry: `GCTCGGAGGACAAGGTCAGAGCATTGTCCGTAGA`
Result: 3.72

Problem: Dear colleague, please send me the reported PBM binding z-score for `ATACCAAGGTGATCTTGAGGTCGTTGATACTAAC` when you can.
Result: 1.12

Problem: State its PBM binding z-score for this sequence: `TAGCCTGGGTCATGGGCCAGTATACCACGCGAAC`
Result: 3.38

Problem: For the sequence `CCAGACAGGTAAAAGGTAACTCAGTCTGGTACGC` , report PBM binding z-score.
Result: 0.29

Problem: Indicate the recorded PBM binding z-score value for this sequence: `GCTATTAGTTGAAAGGGCAACCCAATGATTCTCG`
Result: 1.34

Problem: Specify PBM binding z-score for `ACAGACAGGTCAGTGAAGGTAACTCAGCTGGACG` and stop.
Result: 4.21

Problem: For the sequence `AGAATGAGGTTACAAAAGATCAGGGAAACGCTTG` , give its reported PBM binding z-score.
Result: 1.58

Problem: Using known records, supply PBM binding z-score for `GCCAGTTGGTCAGTAAAAGGTCACACACCGGTCG`
Result: 4.92

Problem: Identify measured PBM binding z-score associated with `ACTAGTTGGTCAGCTGAGGTCAAACACAATTCGG`
Result: 3.72

Problem: Give the reported value of PBM binding z-score for this record: `CCGACTGGGGCAGGGTTACCATAACGCACAGCCA`
Result: 0.718

Problem: Return reported PBM binding z-score. Input sequence: `CGTCAAAGTTCAATGTAACGTAACAGAAAGCAGC`
Result: 5.45

* * *

# Test system: PXR:RXRa (NR concentration 270 nM, RXRa partner concentration 90 nM)
# protocol-summary: PBM binding z-score (relative to random genomic background probes); higher = stronger binding; sequences stand for … in GC…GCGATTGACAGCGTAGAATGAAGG
quantity-name: PBM binding z-score
Just the number.

Here's what some known entries look like.
>  <record-sequence>
TCTATTAGTTGAACGGCAACCGACGAGTCCGTTT

>  <measurement-target>
PXR:RXRa (NR concentration 270 nM, RXRa partner concentration 90 nM)

>  <quantity-name>
PBM binding z-score

>  <quantitative-readout>
0.661

$$$$
>  <record-sequence>
ATATGTAGGTTACATCCGGGTCATTCAGGCTATG

>  <measurement-target>
PXR:RXRa (NR concentration 270 nM, RXRa partner concentration 90 nM)

>  <quantity-name>
PBM binding z-score

>  <quantitative-readout>
3.62

$$$$

Problem: Look up and report PBM binding z-score, with PXR:RXRa (NR concentration 270 nM, RXRa partner concentration 90 nM) as system, for `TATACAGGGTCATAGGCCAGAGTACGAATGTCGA`
Result: 4

Problem: Consider the sequence `TAGCCTAGGTCATTCAGGGGCCTGTATAGAAAGC` tested on PXR:RXRa (NR concentration 270 nM, RXRa partner concentration 90 nM); state its PBM binding z-score.
Result: 1.75

Problem: Report value: PBM binding z-score, system: PXR:RXRa (NR concentration 270 nM, RXRa partner concentration 90 nM), sequence: `ATCTCTATGTAACAAGTTCAGTGAAAGAGAGGAC`
Result: 1.35

Cited source: the supplement of paper PMC6555819
